- Assay text: Cytotoxicity against human MRC9 up to 20 uM
- Type: cell-based
Quantity measured: Activity

{"Smiles code": "CNC(=O)[C@H]1[Se][C@@H](n2cnc3c(NCc4cccc(Br)c4)ncnc32)[C@H](O)[C@@H]1O", "Endpoint result": "Non-Toxic"}
{"Smiles code": "CNC(=O)[C@H]1[Se][C@@H](n2cnc3c(NCc4cccc(I)c4)ncnc32)[C@H](O)[C@@H]1O", "Endpoint result": "Non-Toxic"}
{"Smiles code": "CNC(=O)[C@H]1[Se][C@@H](n2cnc3c(NCc4cccc(Cl)c4)ncnc32)[C@H](O)[C@@H]1O", "Endpoint result": "Non-Toxic"}
{"Smiles code": "CNC(=O)[C@H]1[Se][C@@H](n2cnc3c(NCc4cccc(F)c4)ncnc32)[C@H](O)[C@@H]1O", "Endpoint result": "Non-Toxic"}

====

- Target or test system: Adenosine receptor A2a (Homo sapiens)
- Sequence (P29274 whole entry): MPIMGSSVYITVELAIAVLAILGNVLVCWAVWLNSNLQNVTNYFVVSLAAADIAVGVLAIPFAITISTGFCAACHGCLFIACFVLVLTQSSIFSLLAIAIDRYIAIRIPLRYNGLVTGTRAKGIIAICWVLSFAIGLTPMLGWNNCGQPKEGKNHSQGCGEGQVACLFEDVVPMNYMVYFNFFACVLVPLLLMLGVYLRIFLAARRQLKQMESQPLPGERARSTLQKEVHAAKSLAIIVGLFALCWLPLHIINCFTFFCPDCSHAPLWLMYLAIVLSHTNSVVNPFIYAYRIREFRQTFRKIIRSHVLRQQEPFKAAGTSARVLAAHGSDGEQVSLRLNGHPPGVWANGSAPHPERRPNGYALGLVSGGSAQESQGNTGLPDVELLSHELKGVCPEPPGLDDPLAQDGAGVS
- Assay text: Displacement of [3H]CGS21680 from human adenosine A2 receptor expressed in HEK293 cells at 10 uM after 60 mins by liquid scintillation analyzer relative to control
- Type: cell-based
Entry flag: 1 if inhibition reaches 30%; 0 if it does not.

{"Smiles code": "CNC(=O)[C@H]1[Se][C@@H](n2cnc3nc(Cl)nc(NCc4cccc(I)c4)c32)[C@H](O)[C@@H]1O", "Target or test system": "Adenosine receptor A2a (Homo sapiens)", "Classification": 0}
{"Smiles code": "CNC(=O)[C@H]1[Se][C@@H](n2cnc3c(NCc4cccc(F)c4)nc(Cl)nc32)[C@H](O)[C@@H]1O", "Target or test system": "Adenosine receptor A2a (Homo sapiens)", "Classification": 1}
{"Smiles code": "CNC(=O)[C@H]1[Se][C@@H](n2cnc3c(NC)ncnc32)[C@H](O)[C@@H]1O", "Target or test system": "Adenosine receptor A2a (Homo sapiens)", "Classification": 0}
{"Smiles code": "CNC(=O)[C@H]1[Se][C@@H](n2cnc3c(NC4CC4)ncnc32)[C@H](O)[C@@H]1O", "Target or test system": "Adenosine receptor A2a (Homo sapiens)", "Classification": 1}
{"Smiles code": "CNC(=O)[C@H]1[Se][C@@H](n2cnc3ncnc(NCc4cccc(I)c4)c32)[C@H](O)[C@@H]1O", "Target or test system": "Adenosine receptor A2a (Homo sapiens)", "Classification": 0}

====

- Target or test system: Adenosine receptor A3 (Homo sapiens)
- Sequence (P0DMS8 whole entry): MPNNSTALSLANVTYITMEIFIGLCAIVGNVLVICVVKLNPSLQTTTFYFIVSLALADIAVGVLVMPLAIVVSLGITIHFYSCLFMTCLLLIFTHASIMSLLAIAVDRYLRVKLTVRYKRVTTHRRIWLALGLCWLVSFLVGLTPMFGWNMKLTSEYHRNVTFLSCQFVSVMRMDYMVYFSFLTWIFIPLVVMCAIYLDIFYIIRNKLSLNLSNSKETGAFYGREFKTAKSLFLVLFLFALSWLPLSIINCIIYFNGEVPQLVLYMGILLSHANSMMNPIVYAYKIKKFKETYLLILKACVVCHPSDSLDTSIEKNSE
- Assay text: Displacement of [125I]I-AB-MECA from human adenosine A3 receptor expressed in CHO cells after 60 mins by gamma counting analysis
- Type: cell-based
pKi: −log10 of the molar value.
Quantity measured: pKi

{"Smiles code": "CNC(=O)[C@H]1[Se][C@@H](n2cnc3c(NCc4ccccc4Cl)ncnc32)[C@H](O)[C@@H]1O", "Endpoint result": 8.36}
{"Smiles code": "CNC(=O)[C@H]1[Se][C@@H](n2cnc3c(NCc4cccc(I)c4)ncnc32)[C@H](O)[C@@H]1O", "Endpoint result": 9.24}
{"Smiles code": "CNC(=O)[C@H]1[Se][C@@H](n2cnc3c(NCc4cccc(Br)c4)ncnc32)[C@H](O)[C@@H]1O", "Endpoint result": 9.05}
{"Smiles code": "CNC(=O)[C@H]1[Se][C@@H](n2cnc3c(NC4CC4)nc(Cl)nc32)[C@H](O)[C@@H]1O", "Endpoint result": 8.72}
{"Smiles code": "CNC(=O)[C@H]1[Se][C@@H](n2cnc3c(NCc4cccc(F)c4)ncnc32)[C@H](O)[C@@H]1O", "Endpoint result": 8.64}
{"Smiles code": "CNC(=O)[C@H]1[Se][C@@H](n2cnc3nc(Cl)nc(NCc4cccc(I)c4)c32)[C@H](O)[C@@H]1O", "Endpoint result": 5.13}
{"Smiles code": "CNC(=O)[C@H]1[Se][C@@H](n2cnc3c(NC4CCCC4)ncnc32)[C@H](O)[C@@H]1O", "Endpoint result": 8.15}
{"Smiles code": "CNC(=O)[C@H]1[Se][C@@H](n2cnc3c(NC4CCC4)ncnc32)[C@H](O)[C@@H]1O", "Endpoint result": 8.86}
{"Smiles code": "CNC(=O)[C@H]1[Se][C@@H](n2cnc3c(NCc4cccc(I)c4)nc(Cl)nc32)[C@H](O)[C@@H]1O", "Endpoint result": 8.38}
{"Smiles code": "CNC(=O)[C@H]1[Se][C@@H](n2cnc3c(NCc4cccc(Br)c4)nc(Cl)nc32)[C@H](O)[C@@H]1O", "Endpoint result": 8.70}
{"Smiles code": "CNC(=O)[C@H]1[Se][C@@H](n2cnc3c(NCc4cccc(Cl)c4)ncnc32)[C@H](O)[C@@H]1O", "Endpoint result": 8.46}
{"Smiles code": "CNC(=O)[C@H]1[Se][C@@H](n2cnc3c(NC4CC4)ncnc32)[C@H](O)[C@@H]1O", "Endpoint result": 8.60}
{"Smiles code": "CNC(=O)[C@H]1[Se][C@@H](n2cnc3c(NC4CCCC4)nc(Cl)nc32)[C@H](O)[C@@H]1O", "Endpoint result": 8.45}
{"Smiles code": "CNC(=O)[C@H]1[Se][C@@H](n2cnc3c(NCc4ccc5ccccc5c4)ncnc32)[C@H](O)[C@@H]1O", "Endpoint result": 8.75}
{"Smiles code": "CNC(=O)[C@H]1[Se][C@@H](n2cnc3c(N[C@@H]4C[C@H]4c4ccccc4)ncnc32)[C@H](O)[C@@H]1O", "Endpoint result": 8.41}
{"Smiles code": "CNC(=O)[C@H]1[Se][C@@H](n2cnc3ncnc(NCc4cccc(I)c4)c32)[C@H](O)[C@@H]1O", "Endpoint result": 5.38}
{"Smiles code": "CNC(=O)[C@H]1[Se][C@@H](n2cnc3c(NCc4ccccc4OC)ncnc32)[C@H](O)[C@@H]1O", "Endpoint result": 8.43}
{"Smiles code": "CNC(=O)[C@H]1[Se][C@@H](n2cnc3c(NC4CCC4)nc(Cl)nc32)[C@H](O)[C@@H]1O", "Endpoint result": 9.00}
{"Smiles code": "CNC(=O)[C@H]1[Se][C@@H](n2cnc3c(NC)ncnc32)[C@H](O)[C@@H]1O", "Endpoint result": 8.83}
{"Smiles code": "CNC(=O)[C@H]1[Se][C@@H](n2cnc3c(NCc4cccc(F)c4)nc(Cl)nc32)[C@H](O)[C@@H]1O", "Endpoint result": 8.47}
{"Smiles code": "CNC(=O)[C@H]1[Se][C@@H](n2cnc3c(NCc4cccc(Cl)c4)nc(Cl)nc32)[C@H](O)[C@@H]1O", "Endpoint result": 8.71}

====

Entries with their measured Ki, system Adenosine receptor A2a (Homo sapiens):
Quantity measured: Ki (nM)

{"Smiles code": "CNC(=O)[C@H]1[Se][C@@H](n2cnc3c(N[C@@H]4C[C@H]4c4ccccc4)ncnc32)[C@H](O)[C@@H]1O", "Measurement units": "nM", "Endpoint result": 2480}
{"Smiles code": "CNC(=O)[C@H]1[Se][C@@H](n2cnc3c(NCc4cccc(Cl)c4)nc(Cl)nc32)[C@H](O)[C@@H]1O", "Measurement units": "nM", "Endpoint result": 238}
{"Smiles code": "CNC(=O)[C@H]1[Se][C@@H](n2cnc3c(NC4CCC4)nc(Cl)nc32)[C@H](O)[C@@H]1O", "Measurement units": "nM", "Endpoint result": 899}
{"Smiles code": "CNC(=O)[C@H]1[Se][C@@H](n2cnc3c(NCc4cccc(I)c4)nc(Cl)nc32)[C@H](O)[C@@H]1O", "Measurement units": "nM", "Endpoint result": 1200}
{"Smiles code": "CNC(=O)[C@H]1[Se][C@@H](n2cnc3c(NCc4ccccc4OC)ncnc32)[C@H](O)[C@@H]1O", "Measurement units": "nM", "Endpoint result": 1260}
{"Smiles code": "CNC(=O)[C@H]1[Se][C@@H](n2cnc3c(NCc4ccccc4Cl)ncnc32)[C@H](O)[C@@H]1O", "Measurement units": "nM", "Endpoint result": 1160}
{"Smiles code": "CNC(=O)[C@H]1[Se][C@@H](n2cnc3c(NC4CCCC4)ncnc32)[C@H](O)[C@@H]1O", "Measurement units": "nM", "Endpoint result": 1090}
{"Smiles code": "CNC(=O)[C@H]1[Se][C@@H](n2cnc3c(NC4CCC4)ncnc32)[C@H](O)[C@@H]1O", "Measurement units": "nM", "Endpoint result": 1080}
{"Smiles code": "CNC(=O)[C@H]1[Se][C@@H](n2cnc3c(NC4CCCC4)nc(Cl)nc32)[C@H](O)[C@@H]1O", "Measurement units": "nM", "Endpoint result": 1120}
{"Smiles code": "CNC(=O)[C@H]1[Se][C@@H](n2cnc3c(NCc4cccc(F)c4)ncnc32)[C@H](O)[C@@H]1O", "Measurement units": "nM", "Endpoint result": 1350}
{"Smiles code": "CNC(=O)[C@H]1[Se][C@@H](n2cnc3c(NCc4cccc(Br)c4)ncnc32)[C@H](O)[C@@H]1O", "Measurement units": "nM", "Endpoint result": 560}
{"Smiles code": "CNC(=O)[C@H]1[Se][C@@H](n2cnc3c(NCc4cccc(Br)c4)nc(Cl)nc32)[C@H](O)[C@@H]1O", "Measurement units": "nM", "Endpoint result": 1230}
{"Smiles code": "CNC(=O)[C@H]1[Se][C@@H](n2cnc3c(NCc4cccc(I)c4)ncnc32)[C@H](O)[C@@H]1O", "Measurement units": "nM", "Endpoint result": 1080}
{"Smiles code": "CNC(=O)[C@H]1[Se][C@@H](n2cnc3c(NCc4cccc(Cl)c4)ncnc32)[C@H](O)[C@@H]1O", "Measurement units": "nM", "Endpoint result": 555}

Values were extracted from ChEMBL document CHEMBL4007510.
